B1: Hairpin Ribozyme (parent)
chain: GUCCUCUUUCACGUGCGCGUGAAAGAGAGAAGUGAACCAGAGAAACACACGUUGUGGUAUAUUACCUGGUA

Variants of: B1
Experiment: self-cleavage, relative activity (ratio to wild type); higher = more cleavage; co-transcriptional
Decide by self-cleavage: equal to or exceeding 0.7 means T, less means F.

Before answering, review these 8 worked examples.
polymer.sequence	label.class
GUCCUCUUUCACGUGCGCGUGAAAGAGAUAAGUGAACCAGAGAAACACACGUUGUGGUAUAUUACCUGGUC [G29U A71C]	F
GUCCUCUUUCACGUGCGCGUGAAAGAUAGAAGUGAACCAGAGAAACACACGUUGUGGUAUAUUACCUGAUA [G27U G69A]	F
GUCCUCUUUCACGUGCGCGUGAAAGAGAGAAGUGAACCAGAGAGACACAGGUUGUGGUAUAUUACCUGGUA [A44G C50G]	F
GUCCUCUCUCACGUGCGCGUGAAAGAGAGAAGUGAACCAGAGAAACACACGUCGUGGUAUAUUACCUGGUA [U8C U53C]	T
GUCCUCUUUCACGUGCGCGUGAAAGAGAGAGGUGAACCAGAGAAACACACAUUGUGGUAUAUUACCUGGUA [A31G G51A]	T
GUCCUCUUUCACAUGCGCGUGAAAGAGAUAAGUGAACCAGAGAAACACACGUUGUGGUAUAUUACCUGGUA [G13A G29U]	F
GUCCUCUUUCACGUGCGCGUGAAAGAGAGAAGUGAACCAGAGAAUCACACGUUGUGGUAUAUUACCUGGUA [A45U]	F
GUCCUCUUUCACGUGCGCGUGAAAGAGAGAAGUGAACCAGAGAAACAAACGUUGUGGUAGAUUACCUGGUA [C48A U60G]	F

Lookup: Is self-cleavage for GUCCUCUUUCACGUGCGCGUGAAAGAGAGAAGUGAACCAGUGAAACACACGUUGUGGUAUAUUAACUGGUA [A41U C65A] at or above 0.7?
Found: T

Lookup: Answer whether self-cleavage of GUCCACUUUCACGUGCGCGUGAAAGAGAGAAGUGAACCAGAGAAACACACGUUGUGGUAGAUUACCUGGUA [U5A U60G] is greater than or equal to 0.7.
Found: F

Lookup: Confirm if self-cleavage reported for the variant GUCCUCUUUCACGUGCGCGUGAAAGAGAGGAGUGAGCCAGAGAAACACACGUUGUGGUAUAUUACCUGGUA [A30G A36G] is 0.7 or above.
Found: F

Lookup: Evaluate GUCCUCUUUCCCGUGCGCGUGAAAGAGAGAAGUGAACCAGAGAAACACACGUUGUGGUAUAUUACCUGGAA [A11C U70A] : self-cleavage at minimum 0.7?
Found: T

Lookup: self-cleavage >= 0.7 for GUCCUCUUUCGCGUGCGCGUGAAAGAGAGAAGUGAACCAGAGAAACACACGUUGUGGUAUUUUACCUGGUA [A11G A61U] ?
Found: F

Lookup: Answer whether self-cleavage of GUCCUCUUUCACGUGCGCGUGAAAGAGGGAAGUGAACCAGAGAAACACACGUUGUGGUAUAUUACCUGGUG [A28G A71G] is greater than or equal to 0.7.
Found: T

Lookup: State whether the measured self-cleavage reaches 0.7, counting equality as reaching it, for GUCCUCUUUCACGUGCGCGUCAAAGAGAGAAGUGAACCAGAGAAACACACGUUGUGGUAUAUUACCUGAUA [G21C G69A]
Found: F

Lookup: # check: self-cleavage of GUCCUCUUUCACGUGCGCGUGAAAGAGAGAAGGGAACCAGAGAAACACACGUUGUGGUAUAUUACCUGGAA [U33G U70A] is greater than or equal to 0.7
Found: F
